# literature pull: Prostaglandin G/H synthase 1 (Homo sapiens) pIC50
One number for each entry, as −log10 of the molar value.

COMPOUND	pIC50
CC(C)c1ccc(C[C@](C)(C=O)[C@@H](C[N+](=O)[O-])c2ccco2)cc1 (mixture of isomers)	4.26

Please look at the items below and tell me pIC50 for each one, in order.
1. NS(=O)(=O)c1ccc(N2N=C(c3cc(F)cc(F)c3)CC2c2ccc3c(c2)OCCO3)cc1 (stereo not drawn)
2. Oc1ccccc1/C=N/N=C/c1ccccc1O
3. Cc1ccc2oc(=O)c(S(=O)(=O)Nc3ccc(S(N)(=O)=O)cc3)c(O)c2c1
4. NS(=O)(=O)c1ccc(N2N=C(c3ccc(Cl)cc3)CC2c2ccc3c(c2)OCCO3)cc1 (stereo not drawn)
5. O=c1oc2ccc(Cl)cc2c(O)c1S(=O)(=O)Nc1ccc(S(=O)(=O)Nc2nccs2)cc1

Output line:
[4.26, 4.36, 4.32, 4.43, 4.53]

----------
# literature pull: Prostaglandin G/H synthase 1 (Homo sapiens) IC50
One number for each entry, in µM.

MOLECULE	IC50 (µM)
CC(C)c1ccc(C[C@](C)(C(=O)O)[C@@H](C[N+](=O)[O-])c2ccccc2)cc1	25.3

Please look at the items below and tell me IC50 for each one, in order.
1. Cc1ccc([C@H](C[N+](=O)[O-])[C@@](C)(C=O)Cc2ccc(C(C)C)cc2)cc1 (mixture of isomers)
2. CC(C)(Oc1ccc(C(=O)c2ccc(Cl)cc2)cc1)C(=O)O
3. Cc1ccc2oc(=O)c(S(=O)(=O)Nc3ccccc3)c(O)c2c1
4. CC(=O)c1ccc(NS(=O)(=O)c2c(O)c3cc(Cl)ccc3oc2=O)cc1

Output line:
12.8
950
26
19.9
